Where do these numbers come from? They come from the supplement of paper PMC10126150.

Tested on: ATP;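 further: ATP exposure 15 min at 22 °C before imaging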
Assay: switch fluorescence ratio, 500 uM ATP over buffer (Cy3 cluster intensity, sum of 5 cycles each) (fold (ratio)); higher = stronger signal-on switching upon ATP binding; sequences stand for … in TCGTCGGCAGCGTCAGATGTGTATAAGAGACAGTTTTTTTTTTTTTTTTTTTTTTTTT…TC
Conditions: aptamer strand: ATP DNA aptamer (quencher-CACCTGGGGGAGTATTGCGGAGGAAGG + anchor), 100 nM annealed; ATP concentration: 500 uM
Respond with 1.0 for switch fluorescence ratio values of 1 and above, 0.0 for values below.

Determine whether measured switch fluorescence ratio meets or exceeds 1 for `GGGAGTAGGC` 0.0

Determine whether measured switch fluorescence ratio meets or exceeds 1 for `AATTCAGATG` 0.0

Determine whether measured switch fluorescence ratio meets or exceeds 1 for `TTTCATCTTT` 1.0

---

switch fluorescence ratio for assorted sequences
Test system: ATP;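 further: ATP exposure 15 min at 22 °C before imaging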
Assay: switch fluorescence ratio, 500 uM ATP over buffer (Cy3 cluster intensity, sum of 5 cycles each) (fold (ratio)); higher = stronger signal-on switching upon ATP binding; sequences stand for … in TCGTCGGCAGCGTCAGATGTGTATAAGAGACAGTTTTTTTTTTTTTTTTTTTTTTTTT…TC
Details: aptamer strand: ATP DNA aptamer (quencher-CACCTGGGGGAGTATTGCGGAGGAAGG + anchor), 100 nM annealed; ATP concentration: 500 uM
When you answer, write just the number.

> print(dat)
   constructsequence  targetsystem                   quantity  valuereported
1         CGGTAACCGC           ATP  switch fluorescence ratio          0.994
2         CCAGGCTTGT           ATP  switch fluorescence ratio           1.01
3         TATGTAGAGA           ATP  switch fluorescence ratio           0.99

# evaluate next
Answer briefly: switch fluorescence ratio recorded on ATP for `TTAGGGTGTA` 1.01

---

Tested on: ATP;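 further: ATP exposure 15 min at 22 °C before imaging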
Test: switch fluorescence ratio, 500 uM ATP over buffer (Cy3 cluster intensity, sum of 5 cycles each) (fold (ratio)); higher = stronger signal-on switching upon ATP binding; sequences stand for … in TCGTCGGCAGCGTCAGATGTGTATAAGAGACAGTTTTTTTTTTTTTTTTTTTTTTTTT…TC
Conditions: aptamer strand: ATP DNA aptamer (quencher-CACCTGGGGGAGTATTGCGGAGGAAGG + anchor), 100 nM annealed; ATP concentration: 500 uM
switch fluorescence ratio for assorted sequences
When you answer, write just the number.

> print(dat)
   constructsequence                   quantity  valuereported
1         CGGGGGACGT  switch fluorescence ratio          0.979
2         ATGATAAGTA  switch fluorescence ratio           1.01
3         CTCGGTTCTT  switch fluorescence ratio          0.975
4         TTCATTAGGA  switch fluorescence ratio           1.01
5         GTGCGGAGAA  switch fluorescence ratio          0.986

# evaluate next
Look up switch fluorescence ratio of `ACGGGGTAAA` and report it. 1

---

Test system: ATP;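 further: ATP exposure 15 min at 22 °C before imaging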
Assay: switch fluorescence ratio, 500 uM ATP over buffer (Cy3 cluster intensity, sum of 5 cycles each) (fold (ratio)); higher = stronger signal-on switching upon ATP binding; sequences stand for … in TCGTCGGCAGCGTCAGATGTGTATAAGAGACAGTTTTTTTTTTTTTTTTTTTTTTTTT…TC
Details: aptamer strand: ATP DNA aptamer (quencher-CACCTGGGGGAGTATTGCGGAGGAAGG + anchor), 100 nM annealed; ATP concentration: 500 uM
switch fluorescence ratio for assorted sequences
When you answer, write just the number.

Known results for sequences:
> print(dat)
   constructsequence                   quantity  valuereported
1         GTTGGATATT  switch fluorescence ratio          0.998
2         AAAGAAAGGT  switch fluorescence ratio           1.02
3         ATTTCGGCAC  switch fluorescence ratio          0.996
4         TCCTGCGGGG  switch fluorescence ratio           1.12

Answer briefly: switch fluorescence ratio recorded on ATP for `AACGTGTATT` 1.1

Answer briefly: switch fluorescence ratio recorded on ATP for `AAAAAATTAG` 0.996

Answer briefly: switch fluorescence ratio recorded on ATP for `GACGCGGATG` 1.04

Answer briefly: switch fluorescence ratio recorded on ATP for `TTACGACGCA` 3.67
